# Tested on: AGS
# test description: Antiproliferative activity against human AGS cells after 72 hrs by MTT assay
reported endpoint: pIC50
As a rule, pIC50 stands for the negative log10 of the concentration, concentration in M.

IN: Entry Cc1c(-c2ccncc2)c[nH]c1C(N)=O : reported pIC50 = ?
OUT: 6.10

Next:
IN: Look up pIC50 for this compound: NC(=O)c1[nH]cc(-c2ccncc2)c1C(F)(F)F
OUT: 6.57

IN: Value lookup for pIC50; key = Cc1cnccc1-c1c[nH]c(C(N)=O)c1C
OUT: 5.93

IN: Report pIC50 for NC(=O)c1[nH]cc(-c2ccncc2)c1Cl please.
OUT: 6.43

IN: What does the record list as pIC50 for CCc1c(-c2ccncc2)c[nH]c1C(N)=O ?
OUT: 5.95

---

# test description: Clearance in mouse at 5 mg/kg, iv
# Format: ADME, organism-based
# experimental setup: in vivo
reported endpoint: clearance (mL/min/kg)
Express your answer in mL/min/kg, writing the number without its unit.

IN: Can you look up the measured clearance of NC(=O)c1[nH]cc(-c2ccncc2)c1C(F)(F)F for me?
OUT: 8.87

---

# test description: Half life in mouse at 25 mg/kg, po
# Assay type: ADME, organism-based
# experimental setup: in vivo
reported endpoint: half-life (h)
// units = h; emit number, no label

IN: What does the data say about its half-life? Entry: NC(=O)c1[nH]cc(-c2ccncc2)c1C(F)(F)F
OUT: 7.91

---

# assayed target: CDK8/Cyclin C (Homo sapiens, UniProt P49336)
# Sequence (P49336 whole entry): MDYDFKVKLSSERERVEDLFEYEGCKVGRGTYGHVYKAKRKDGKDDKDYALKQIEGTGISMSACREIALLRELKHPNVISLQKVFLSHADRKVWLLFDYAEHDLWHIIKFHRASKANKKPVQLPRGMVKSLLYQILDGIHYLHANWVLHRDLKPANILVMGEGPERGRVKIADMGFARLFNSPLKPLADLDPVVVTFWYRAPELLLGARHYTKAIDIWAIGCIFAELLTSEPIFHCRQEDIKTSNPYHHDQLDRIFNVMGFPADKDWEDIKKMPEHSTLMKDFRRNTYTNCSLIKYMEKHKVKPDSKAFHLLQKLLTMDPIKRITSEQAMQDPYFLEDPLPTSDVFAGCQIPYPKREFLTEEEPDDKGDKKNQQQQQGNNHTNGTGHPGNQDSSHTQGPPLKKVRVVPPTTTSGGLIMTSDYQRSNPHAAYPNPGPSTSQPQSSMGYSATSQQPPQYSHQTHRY
# Sequence (P24863 whole entry, further chain): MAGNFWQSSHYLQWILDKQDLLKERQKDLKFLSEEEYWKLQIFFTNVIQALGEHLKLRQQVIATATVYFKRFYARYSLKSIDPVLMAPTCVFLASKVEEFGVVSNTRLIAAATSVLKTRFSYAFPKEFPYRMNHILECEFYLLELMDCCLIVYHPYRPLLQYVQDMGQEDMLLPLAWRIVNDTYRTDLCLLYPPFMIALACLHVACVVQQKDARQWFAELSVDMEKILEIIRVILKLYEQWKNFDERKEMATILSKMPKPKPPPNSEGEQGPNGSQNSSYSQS
# test description: Inhibition of recombinant full length His-tagged human CDK8/Cyclin C expressed in baculovirus expression system using Ulight-GS peptide as substrate after 30 mins in presence of ATP by TR-FRET assay
Just a reminder that ties go to not met: only IC50 strictly below 90 nM counts as met.

IN: API: query returns whether the compound falls strictly under 90 nM in IC50. Query: NC(=O)c1cc(-c2ccncc2)cn1Cc1ccccc1
OUT: not met

IN: Report whether reported IC50 is lower than 90 nM (strictly) for Cc1c(-c2ccncc2)c[nH]c1C(N)=O
OUT: met

IN: Could you please tell me whether IC50 recorded for Cc1[nH]c(C(N)=O)cc1-c1ccncc1 is less than 90 nM?
OUT: not met

IN: # strict comparison: is reported IC50 < 90 nM? input = Cc1cc(-c2c[nH]c(C(N)=O)c2C)ccn1
OUT: met

IN: Say whether its IC50 is strictly beneath 90 nM. Entry: NC(=O)c1cc(-c2ccncc2)c(Cl)[nH]1
OUT: not met

IN: Report whether reported IC50 is lower than 90 nM (strictly) for CCc1cnccc1-c1c[nH]c(C#N)c1
OUT: not met

IN: Consider the compound Cc1cnccc1-c1c[nH]c(C(N)=O)c1 . Is its IC50 strictly less than 90 nM?
OUT: met

IN: Identify whether the compound CNC(=O)c1cc(-c2ccncc2)c[nH]1 records IC50 below 90 nM.
OUT: not met

IN: For this compound, is IC50 lower than 90 nM? Cc1cnccc1-c1c[nH]c(C(N)=O)c1C
OUT: met

IN: Is 90 nM strictly greater than the compound's reported IC50? compound: N#Cc1cc(-c2ccncc2)c[nH]1
OUT: not met

More entries:
IN: Could you please tell me whether IC50 recorded for NC(=O)c1cc(-c2ccnc(Cl)c2)c[nH]1 is less than 90 nM?
OUT: not met

IN: Strictly below 90 nM: is that where IC50 of NC(=O)c1cc(-c2ccncc2)c[nH]1 sits?
OUT: not met

IN: Consider NC(=O)c1[nH]cc(-c2ccncc2)c1C(F)(F)F . Does its IC50 lie strictly below 90 nM?
OUT: met

IN: Quick check: IC50 of NC(=O)c1[nH]cc(-c2ccncc2)c1Cl under 90 nM?
OUT: met

IN: # strict comparison: is reported IC50 < 90 nM? input = NC(=O)c1cc(-c2ccncc2Br)c[nH]1
OUT: met

IN: Just wondering, is IC50 of NC(=O)c1cc(-c2ccncc2Cl)c[nH]1 below 90 nM?
OUT: met

IN: Confirm or reject: IC50 of Cc1cc(-c2c[nH]c(C(N)=O)c2)ccn1 lies strictly below 90 nM
OUT: not met

IN: Problem: For the compound Cn1cc(-c2ccncc2)cc1C(N)=O , is IC50 under 90 nM?
OUT: not met

IN: Item CCc1c(-c2ccncc2)c[nH]c1C(N)=O : IC50 beneath 90 nM, strictly?
OUT: met
